B1: Pistol ribozyme (parent)
chain: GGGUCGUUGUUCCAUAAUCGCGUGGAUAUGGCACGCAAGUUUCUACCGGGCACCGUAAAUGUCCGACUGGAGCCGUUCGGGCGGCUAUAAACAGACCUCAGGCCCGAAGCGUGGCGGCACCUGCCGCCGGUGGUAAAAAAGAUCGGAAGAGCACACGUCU

Variants of: B1
assay details: aptazyme ON/OFF ratio, guanine; higher = stronger switching; co-transcriptional cleavage with and without guanine
Give measured aptazyme ON/OFF ratio for each item. Keep answers brief.
Give bare numbers.

As a guide, the following entries are already answered.
| var | quantitative result |
| --- | --- |
| U7A U8G U10A U11G | 1.95 |
| U8C U10G U11G C12G C13G | 1.13 |
| U7C U8A G9C U10C U11C C12U C13U | 1.02 |
| U10C C13G | 1.05 |
| U7G G9A U10G U11A C12G C13U | 1.05 |
| U7G G9A U10C U11A | 2.37 |

Kindly give each listed record's aptazyme ON/OFF ratio.
1. U7A G9U U10C U11G C12A
2. U8A U11A C13G
3. U7G G9A U10G U11G C12U C13U
4. U7C U8A U10G U11G C12G C13G
5. U8A G9U U10A U11C C12U C13U
6. U10G C12G C13U
7. U7C U8C U10G U11C C13A

1: 1.02; 2: 1.05; 3: 1.1; 4: 1.17; 5: 1.18; 6: 1.34; 7: 1.37

Working through the 2 variants below one at a time, give aptazyme ON/OFF ratio for each.
1. U7G U8A G9A U10A U11A C12G C13U
2. G9A U10C U11A C12U C13U

[1.14, 1.22]

For every record below, what is its aptazyme ON/OFF ratio?
1. U7G U8C G9U U10C U11G C12A C13A
2. U8A G9C U10G U11C C12A C13U

[1.18, 1.21]

This collection of values is drawn from the RNAGym collection of RNA variant scans (doi:10.1021/acssynbio.7b00057).
